Biological target: Platelet-derived growth factor receptor beta (Homo sapiens, UniProt P09619)
Sequence (P09619 whole entry): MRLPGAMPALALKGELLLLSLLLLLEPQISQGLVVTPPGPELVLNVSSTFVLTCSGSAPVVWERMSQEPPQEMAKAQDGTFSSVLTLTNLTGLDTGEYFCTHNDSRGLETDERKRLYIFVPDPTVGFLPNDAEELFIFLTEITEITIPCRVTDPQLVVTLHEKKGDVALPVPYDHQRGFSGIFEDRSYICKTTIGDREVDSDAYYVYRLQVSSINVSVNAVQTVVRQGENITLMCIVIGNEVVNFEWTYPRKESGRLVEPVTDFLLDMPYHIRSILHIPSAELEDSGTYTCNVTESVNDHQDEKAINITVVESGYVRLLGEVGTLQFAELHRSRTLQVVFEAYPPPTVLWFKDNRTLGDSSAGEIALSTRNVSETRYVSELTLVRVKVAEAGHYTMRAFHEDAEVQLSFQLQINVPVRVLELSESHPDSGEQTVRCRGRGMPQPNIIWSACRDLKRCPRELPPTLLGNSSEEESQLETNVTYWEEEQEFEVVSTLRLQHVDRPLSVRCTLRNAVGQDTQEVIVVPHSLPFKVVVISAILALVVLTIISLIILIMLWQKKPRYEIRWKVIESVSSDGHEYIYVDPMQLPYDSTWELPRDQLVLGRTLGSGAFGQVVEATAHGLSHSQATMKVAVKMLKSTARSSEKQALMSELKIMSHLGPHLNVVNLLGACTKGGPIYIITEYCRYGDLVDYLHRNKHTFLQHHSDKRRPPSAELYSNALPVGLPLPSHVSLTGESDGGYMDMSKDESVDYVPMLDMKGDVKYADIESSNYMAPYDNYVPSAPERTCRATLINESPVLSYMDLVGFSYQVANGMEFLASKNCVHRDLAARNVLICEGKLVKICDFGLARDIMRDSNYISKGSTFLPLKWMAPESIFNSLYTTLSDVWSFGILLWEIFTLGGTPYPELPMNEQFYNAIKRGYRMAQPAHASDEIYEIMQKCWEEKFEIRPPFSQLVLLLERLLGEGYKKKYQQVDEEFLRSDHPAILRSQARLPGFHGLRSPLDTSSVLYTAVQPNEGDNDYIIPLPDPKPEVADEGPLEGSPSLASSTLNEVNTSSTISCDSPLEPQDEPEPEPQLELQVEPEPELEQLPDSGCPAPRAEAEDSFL
Assay: Inhibition of recombinant human PDGFR-beta using poly (Glu,Tyr)4:1 as substrate after 60 mins by ELISA
pIC50: −log10 of the molar value.
Measurement Kind: pIC50

*Q* Give Platelet-derived growth factor receptor beta (Homo sapiens, UniProt P09619) pIC50 for Cn1cc(-c2cnc(Nc3cccc(Cn4nc(-c5cnn(C)c5)ccc4=O)c3)nc2)cn1
*A* < 6.00

---

Target: Proto-oncogene tyrosine-protein kinase Src (Homo sapiens, UniProt P12931)
Sequence (P12931 2-536 limits assumed): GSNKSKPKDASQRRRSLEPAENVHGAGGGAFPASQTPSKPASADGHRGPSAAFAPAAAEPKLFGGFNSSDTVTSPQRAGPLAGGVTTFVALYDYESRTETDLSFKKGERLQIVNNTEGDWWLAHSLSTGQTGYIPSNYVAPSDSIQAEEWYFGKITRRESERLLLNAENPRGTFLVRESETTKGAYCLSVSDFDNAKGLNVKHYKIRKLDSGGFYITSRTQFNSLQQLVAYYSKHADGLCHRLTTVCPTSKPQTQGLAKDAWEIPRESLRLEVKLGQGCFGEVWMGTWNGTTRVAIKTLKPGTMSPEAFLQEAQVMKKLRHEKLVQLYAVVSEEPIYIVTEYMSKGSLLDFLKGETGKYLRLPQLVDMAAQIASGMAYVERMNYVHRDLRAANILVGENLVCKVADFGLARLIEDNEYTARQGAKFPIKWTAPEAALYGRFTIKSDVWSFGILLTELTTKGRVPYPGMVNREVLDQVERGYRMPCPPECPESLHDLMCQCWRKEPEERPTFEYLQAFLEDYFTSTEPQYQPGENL
Test: Inhibition of recombinant human c-Src using poly (Glu,Tyr)4:1 as substrate after 60 mins by ELISA
pIC50: −log10 of the molar value.
Measurement Kind: pIC50

*Q* Give Proto-oncogene tyrosine-protein kinase Src (Homo sapiens, UniProt P12931) pIC50 for Cn1cc(-c2cnc(Nc3cccc(Cn4nc(-c5cnn(C)c5)ccc4=O)c3)nc2)cn1
*A* < 6.00
